target: human DGAT2 (Homo sapiens, UniProt Q96PD7); construct: FLAG (DYKDDDDK); membrane fraction used; experiment: DGAT2 enzyme activity inhibition, Phospholipid FlashPlate SPA; conditions: recombinant human DGAT2 membrane protein from Sf-21 cells; inhibition of [14C]-TG production; 37° C.
Sequence (Q96PD7 whole entry): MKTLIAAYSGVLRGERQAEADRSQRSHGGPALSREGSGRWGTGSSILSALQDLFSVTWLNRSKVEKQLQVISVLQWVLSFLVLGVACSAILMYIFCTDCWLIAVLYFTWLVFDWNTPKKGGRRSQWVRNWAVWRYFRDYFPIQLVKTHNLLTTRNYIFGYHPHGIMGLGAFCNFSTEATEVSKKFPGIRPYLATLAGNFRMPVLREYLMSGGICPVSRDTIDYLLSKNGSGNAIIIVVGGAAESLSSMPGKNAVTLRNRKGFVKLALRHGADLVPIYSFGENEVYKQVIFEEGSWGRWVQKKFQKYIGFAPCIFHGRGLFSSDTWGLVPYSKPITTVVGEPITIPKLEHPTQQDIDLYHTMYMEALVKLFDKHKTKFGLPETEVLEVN

smiles-string: CCOc1ccccc1O[C@@H]1CCCN(c2cncc(Nc3cccc(-c4ccc(CC(C)(C)C(=O)O)cc4)c3)n2)C1
bound-type: =
IC50 (nM): 2400
//
smiles-string: CCOc1cccnc1O[C@@H]1CCCN(c2cncc(Nc3ccnc(-c4cccc(OC(C)(C)C(=O)O)c4)n3)n2)C1
bound-type: =
IC50 (nM): 1100
//
smiles-string: CCOc1ccccc1O[C@@H]1CCCN(c2cncc(Nc3nccs3)n2)C1
bound-type: =
IC50 (nM): 6300
//
smiles-string: CCOc1ccccc1O[C@@H]1CCCN(c2cncc(Nc3ccn(CC(C)(C)C(=O)O)n3)n2)C1
bound-type: >
IC50 (nM): 10000
//
smiles-string: CCOc1cccnc1O[C@@H]1CCCN(c2cncc(Nc3cccc(-c4ccc(NCC(=O)O)cc4)n3)n2)C1
bound-type: =
IC50 (nM): 980
//
smiles-string: CCOc1ccccc1O[C@@H]1CCCN(c2cncc(Nc3ccc(F)c(-c4cccc(CC(C)(C)C(=O)O)c4)n3)n2)C1
bound-type: =
IC50 (nM): 140
//
smiles-string: CCOc1ccccc1O[C@@H]1CCCN(c2cncc(Nc3nccc(N4CCC[C@@H](/C=C/C(=O)O)C4)n3)n2)C1
bound-type: =
IC50 (nM): 800
